experimental_system: Dual specificity tyrosine-phosphorylation-regulated kinase 1A (Rattus norvegicus)
Format: biochemical, Homo sapiens
Active and inactive are the calls of the source.
reported_metric: AC50

Consider the worked cases shown below.
| compound | reported_metric | assay_value |
| --- | --- | --- |
| CC(=O)Nc1cccc(-c2cnc(N)c(C(=O)c3cccnc3)n2)c1 | AC50 | 0.193 µM (active) |
| C/N=C1/S/C(=C\c2ccc(O)c(Br)c2)C(=O)N1C | AC50 | 0.194 µM (active) |
| COc1ccc2cc(C(=O)N/N=C/c3cc(OC)c(OC)c(OC)c3)[nH]c2c1 | AC50 | 3.83 µM (active) |

Give a short answer stating reported AC50 for c1ccc2c(c1)[nH]c1cnccc12 [NORHARMANE] .
8.75 µM (active)

Give the reported AC50 for this compound. `COc1cc(/C=C2\SC(Nc3ccccc3)=NC2=O)cc(Cl)c1O`
7.03 µM (active)

====

experiment_summary: cytotoxicity toward NIH3T3 fibroblasts, dose response, counter-screen, cell-based, ATP luminescence, mouse fibroblasts (AID 2010);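 further: cells exposed to compound for about 90 hours before reading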
Assay type: functional
Activity calls are given as the source filed them.
Consider the following molecules and their measured EC50 readings.

Known EC50 results, listed for orientation:
| molecule | EC50 |
| --- | --- |
| CCC(c1nnnn1CCc1ccccc1)N(Cc1ccco1)Cc1cc2c(C)ccc(C)c2nc1O (centres undefined) | > 60 µM (not active) |
| CCC(C)NCCOCCOc1ccc(F)cc1 (centres undefined) | 10.7 µM (active) |
| O=C(Nc1ccc(OC(F)F)c(Cl)c1)C(c1ccccc1)c1ccccc1 | > 60 µM (inconclusive) |
| O=C(CCS(=O)(=O)c1ccccc1)N(CCCN1CCOCC1)c1nc2c(F)cccc2s1 | 4.45 µM (active) |

Give the reported EC50 for this molecule. `Cc1ccc(O)c(NC2=C(Cl)C(=O)N(Cc3ccccc3)C2=O)c1`
> 60 µM (inconclusive)

Supply reported EC50 belonging to this molecule: `Nc1c2c(nc3ccccc13)CSCC2`
> 30 µM (not active)

# return recorded EC50 for input O=C(c1cccs1)N1N=C(c2ccccc2)CC1c1ccccc1O (centres undefined)
> 60 µM (not active)

Complete the entry with EC50 for `NC(=S)N/N=C/c1ccc2ccccc2c1`
> 60 µM (not active)

Specify reported EC50 for the molecule shown: `Cc1ccc(N/C=C2/Sc3ccccc3NC2=O)cc1`
> 30 µM (not active)

====

experimental_system: UniProt:P38532
Sequence (P38532 whole entry): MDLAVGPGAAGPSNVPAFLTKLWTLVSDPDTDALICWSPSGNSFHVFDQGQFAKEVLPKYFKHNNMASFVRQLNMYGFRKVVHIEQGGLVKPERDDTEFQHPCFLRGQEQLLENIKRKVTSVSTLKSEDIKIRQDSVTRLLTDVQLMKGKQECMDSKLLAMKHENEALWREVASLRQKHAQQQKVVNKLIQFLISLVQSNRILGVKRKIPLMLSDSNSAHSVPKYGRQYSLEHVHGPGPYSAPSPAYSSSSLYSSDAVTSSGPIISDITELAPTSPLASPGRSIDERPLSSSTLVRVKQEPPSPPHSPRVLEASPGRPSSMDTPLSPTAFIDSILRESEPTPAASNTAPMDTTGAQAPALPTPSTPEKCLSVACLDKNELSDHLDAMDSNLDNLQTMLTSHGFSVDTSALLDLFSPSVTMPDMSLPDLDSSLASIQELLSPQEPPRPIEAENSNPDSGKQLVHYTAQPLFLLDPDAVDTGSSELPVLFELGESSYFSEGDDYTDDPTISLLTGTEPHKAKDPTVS
experiment_summary: inhibition of MG132-induced HSE-luciferase signal, confirmation, cell-based, NIH3T3, luminescence, dose retest (AID 2382);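 further: NIH3T3 fibroblasts with HSF1-driven luciferase reporter stressed by proteasome inhibitor MG132; luminescence from HSF1-driven luciferase expression after 8 hours of MG132 stress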
Format: functional
Active and inactive are the calls of the source.
reported_metric: EC50

Take a look at these entries with their results.
| compound | EC50 |
| --- | --- |
| CC1CC(C)CN(C(=O)c2ccc(CSc3nc4cc[nH]cc-4n3)cc2)C1 (stereo unspecified) | > 195 µM (not active) |
| CC(=O)Oc1ccc(/C=N\NC(=O)c2cc3c(ccc4ccccc43)o2)cc1 | > 195 µM (not active) |
| CCOC(=O)CCCNS(=O)(=O)c1c(C)ccc2nsnc12 | 53.4 µM (active) |
| CC(=O)N=C(Nc1ccc2ccccc2c1)Nc1nc(C)cc(C)n1 | 146 µM (active) |

Let me know recorded EC50 for O=C(OC(C(=O)NCC1CCCO1)c1ccc(F)cc1)c1cccs1 (stereo unspecified) , thanks.
> 195 µM (not active)

====

# key: entry, value: EC50
experiment_summary: Luminescence Cell-Based Dose Confirmation HTS to Identify Inhibitors of Platelet Dense Granule Release. [Related pubchem assays: 1663 (Primary HTS), 1678 (Summary of Project)]
Type: functional
The source made the active and inactive calls.

| compound | assay_value |
| --- | --- |
| CCCCc1c(O)nc(SCC(=O)N2CCOCC2)nc1O | > 112 µM (not active) |
| O=C1/C(=N\c2ccc(O)cc2)C=C(O)c2ccccc21 | 4.34 µM (active) |
| COC(=O)C(Cc1ccc(O)cc1)NC(=O)C12CC3CC(CC(C3)C1)C2 (centres undefined) | 17.2 µM (active) |

Could you please provide reported EC50 for `Cc1ccc(NC(=O)c2cc(S(=O)(=O)N3CCOCC3)cn2C)c(C)c1` ? Thanks!
> 112 µM (not active)

====

experimental_system: Heat shock factor protein 1 (Mus musculus, UniProt P38532)
experiment_summary: HSF1 potentiators in luciferase reporter cells, confirmation, cell-based, NIH3T3, luminescence, dose retest (AID 435004);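 further: stress induced by proteasome inhibitor MG132 added 30 min after compound; luciferase reporter driven by HSF1 response element in NIH3T3 cells; actives raise luminescence as potentiators of the MG132 stress response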
Assay type: functional
Activity calls are given as the source filed them.
// classify into 1 (active), 0 (inactive)

Which outcome did this test record for the molecule COc1cc(C2C(C(=O)c3cc4ccccc4o3)=C(O)C(=O)N2c2cc(C)on2)cc(OC)c1OC (stereo not given) ?
0

How did this test come out for `Cc1cccc(NC(=O)CSc2cc(C)c(C#N)c3nc4ccccc4n23)c1` ?
1

====

experimental_system: Zinc finger protein mex-5 (Caenorhabditis elegans, UniProt Q9XUB2)
Sequence (Q9XUB2 whole entry): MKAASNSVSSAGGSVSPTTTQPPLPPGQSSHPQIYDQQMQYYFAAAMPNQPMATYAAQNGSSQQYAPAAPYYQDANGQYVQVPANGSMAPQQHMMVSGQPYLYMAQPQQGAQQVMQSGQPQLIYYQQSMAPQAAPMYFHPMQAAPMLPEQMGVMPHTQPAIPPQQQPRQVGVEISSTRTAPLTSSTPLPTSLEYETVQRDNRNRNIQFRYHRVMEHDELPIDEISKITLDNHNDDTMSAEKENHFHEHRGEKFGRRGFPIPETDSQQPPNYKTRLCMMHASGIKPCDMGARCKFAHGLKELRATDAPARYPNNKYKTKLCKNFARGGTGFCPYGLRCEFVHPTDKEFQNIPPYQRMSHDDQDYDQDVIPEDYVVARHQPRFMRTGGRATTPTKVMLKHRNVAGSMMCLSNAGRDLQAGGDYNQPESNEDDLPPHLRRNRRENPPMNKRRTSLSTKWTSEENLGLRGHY
experiment_summary: MEX-5/TCR-2 RNA interaction inhibitors, dose response, biochemical, C. elegans, fluorescence polarization (AID 1960)
Calls of active or inactive are those of the source.
The reader will find reported EC50 values listed item by item below.

Below, each entry is followed by its recorded EC50 result.
| molecule | EC50 |
| --- | --- |
| O=C(CN1C(=O)/C(=C\C=C\c2ccccc2)SC1=S)Nc1ccc(F)cc1 | > 300 µM (not active) |
| Cc1ccc(/C=C/C(=O)c2ccc(N3CCOCC3)cc2)s1 | > 300 µM (not active) |
| COCCCNC(=O)C(C#N)c1nc2ccccc2nc1N1CCCC1 (stereo unspecified) | > 300 µM (inconclusive) |
| COc1ccc(C2C(C#N)=C(N)OC3=C2C(=O)CC(C)C3)c(OC)c1OC (stereo unspecified) | > 300 µM (not active) |
| CSc1nnc(N2C(=O)C(O)=C(C(=O)c3ccco3)C2c2ccc(F)cc2)s1 (stereo unspecified) | 82.8 µM (active) |
| Cc1ccc(N/C=C2/Sc3ccccc3NC2=O)cc1 | > 300 µM (inconclusive) |
| N=c1c(C(=O)NCC2CCCO2)cc2c(=O)n3ccccc3nc2n1Cc1ccccc1Cl (stereo unspecified) | 195 µM (active) |
| Cc1ccc(/C=N/NC(=O)c2nnn(-c3nonc3N)c2-c2cccs2)cc1 | > 300 µM (not active) |

Fetch value of EC50 on Zinc finger protein mex-5 (Caenorhabditis elegans, UniProt Q9XUB2) for `CCOC(=O)c1ccc(N/C=C2\CCCCC2=O)cc1` .
> 300 µM (not active)

Recall the reported EC50 of `O=C1NC(=O)N(c2ccccc2)C(=O)/C1=C\NN1C(=O)c2cccc3cccc(c23)C1=O` on Zinc finger protein mex-5 (Caenorhabditis elegans, UniProt Q9XUB2) and write it down.
72 µM (active)

// fetch EC50 for `NC(=O)c1sc2nnc(-c3ccccc3)c(-c3ccccc3)c2c1N` ; system: Zinc finger protein mex-5 (Caenorhabditis elegans, UniProt Q9XUB2)
> 300 µM (not active)
